- assayed-system: PLK1 (Homo sapiens)
- Construct: Full-length, active GST-PLK1 is purified from Sf9 insect cells; made in house; host or cells: Sf9 insect cells
- Sequence (P53350 whole entry): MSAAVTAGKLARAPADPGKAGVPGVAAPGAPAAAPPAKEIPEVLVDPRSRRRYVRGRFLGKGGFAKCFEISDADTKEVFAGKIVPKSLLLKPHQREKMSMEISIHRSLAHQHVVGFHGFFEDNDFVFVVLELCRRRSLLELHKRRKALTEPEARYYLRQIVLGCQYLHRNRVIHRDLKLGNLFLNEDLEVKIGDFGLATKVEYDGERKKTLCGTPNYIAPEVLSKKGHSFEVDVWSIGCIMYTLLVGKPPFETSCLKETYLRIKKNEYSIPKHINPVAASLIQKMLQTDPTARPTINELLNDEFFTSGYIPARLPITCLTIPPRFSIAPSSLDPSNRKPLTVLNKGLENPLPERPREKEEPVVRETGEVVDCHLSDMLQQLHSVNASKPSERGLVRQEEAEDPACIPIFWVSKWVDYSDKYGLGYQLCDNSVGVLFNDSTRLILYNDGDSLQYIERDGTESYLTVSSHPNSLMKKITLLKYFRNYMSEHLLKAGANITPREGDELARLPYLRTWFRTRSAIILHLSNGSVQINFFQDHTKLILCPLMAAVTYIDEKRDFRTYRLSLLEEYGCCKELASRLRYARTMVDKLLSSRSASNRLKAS
- assay-remarks: Biochemical Characterization Assay: HTRF kinase assay, GST-PLK1 phosphorylation of GST-p53
- settings: GST-PLK1, GST-p53 substrate
pIC50: −log10 of the molar value.
parameter-measured: pIC50

These solved cases illustrate the format of a correct answer.
CCN1C(=O)C(F)(F)CN(C2CCCC2)c2nc(Nc3ccc(C(=O)NC4CCOCC4)cc3OC)ncc21; 5.30 to 6.30
CN(C)CCCNC(=O)c1ccc(Nc2ncc3c(n2)N(C2CCCC2)CC(F)(F)C(=O)N3C)c(F)c1; 7.30 to 9.00
CN1C(=O)C(F)(F)CN(C2CCCC2)c2nc(Nc3ccc(C(=O)NC4CCNCC4)cc3F)ncc21; 7.30 to 9.00
CCOc1cc(C(=O)NC2CCOCC2)ccc1Nc1ncc2c(n1)N(C1CCCC1)CC(F)(F)C(=O)N2C; 7.30 to 9.00
CCCN1C(=O)C(F)(F)CN(C2CCCC2)c2nc(Nc3ccc(C(=O)NC4CCN(C)CC4)cc3OC)ncc21; 6.30 to 7.29
CN1C(=O)C(F)(F)CN(C2CCCC2)c2nc(Nc3ccc(C(=O)NC4CCOCC4)cc3C(F)(F)F)ncc21; 6.30 to 7.29
CNC(=O)c1ccc(Nc2ncc3c(n2)N(CCCc2ccccc2)CC(F)(F)C(=O)N3C)c(OC)c1; 6.30 to 7.29
COc1cc(C(=O)N[C@H]2CC[C@@H](N3CCN(CC4CC4)CC3)CC2)ccc1Nc1ncc2c(n1)N(C1CCCC1)CC(F)(F)C(=O)N2C; 7.30 to 9.00
COc1cc(C(=O)NC2CCN(CC(F)F)CC2)ccc1Nc1ncc2c(n1)N(C1CCCCC1)CC(F)(F)C(=O)N2C; 7.30 to 9.00
COc1cc(C(=O)N[C@H]2CC[C@H](N3CCN(CC4CC4)CC3)CC2)ccc1Nc1ncc2c(n1)N(C1CCCC1)CC(F)(F)C(=O)N2C; 7.30 to 9.00

Request: Fill in the recorded pIC50 for this molecule, with PLK1 (Homo sapiens) as test system: CNC(=O)c1cc(F)c(Nc2ncc3c(n2)N(C2CCCC2)CC(F)(F)C(=O)N3C)cc1F
Result: 7.30 to 9.00

Request: Fill in the recorded pIC50 for this molecule, with PLK1 (Homo sapiens) as test system: CCc1cc(C(=O)NC2CCN(C)CC2)ccc1Nc1ncc2c(n1)N(C1CCCC1)CC(F)(F)C(=O)N2C
Result: 7.30 to 9.00
